Measured values drawn from the Human Domainome abundance scans (Beltran et al. 2025) for this set.

B1: Pre-mRNA-processing factor 40 homolog B, residues 274 to 332; numbered along this chain, Q6NWY9 (parent)
chain: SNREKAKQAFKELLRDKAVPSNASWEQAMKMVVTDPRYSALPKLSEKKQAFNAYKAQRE

# Variants of: B1
# method.summary: abundance fitness (aPCA) (normalised: wild type 0, dead -1); higher = more abundant; growth selection in yeast, the domain comes from the species named
# experimental.context: Homo sapiens
Class 1: abundance fitness at least -0.1. Class -1: abundance fitness below -0.1.

Below are worked cases with known answers.
Say whether "R3L" shows abundance fitness of -0.1 or more.
1

Say whether "K7R" shows abundance fitness of -0.1 or more.
-1

Say whether "R15M" shows abundance fitness of -0.1 or more.
1

Say whether "S1A" shows abundance fitness of -0.1 or more.
1

Say whether "Y38G" shows abundance fitness of -0.1 or more.
-1

Say whether "R58S" shows abundance fitness of -0.1 or more.
1

Say whether "E46C" shows abundance fitness of -0.1 or more.
-1

Say whether "K30G" shows abundance fitness of -0.1 or more.
-1

Say whether "E12M" shows abundance fitness of -0.1 or more.
-1

Say whether "E26V" shows abundance fitness of -0.1 or more.
-1

Next:
Say whether "P36G" shows abundance fitness of -0.1 or more.
-1

Say whether "S45I" shows abundance fitness of -0.1 or more.
-1

Say whether "V33H" shows abundance fitness of -0.1 or more.
1
